Test system: turtle Androgen Receptor (AR), gene 101947425
MEASUREMENT_NOTES: ATG_trAR_XSP2: Attagene TRANS-FACTORIAL Multi-Species (XSP2) HepG2 Assay for turtle Androgen Receptor (AR) (AID 2283815)
Records with an inconclusive call do not appear. Active and inactive are the calls of the source. How the source made its calls: active means hit-call score of the fitted dose curve at least 0.9, where 1 is the maximum; inconclusive means response in the unintended direction; inactive means score below 0.9.
Outcome codes: True for active, False for inactive

| SMILES_REPR | EXPERIMENTAL_SYSTEM | LABEL |
| --- | --- | --- |
| O=C(Oc1ccccc1)c1ccc(O)cc1 | turtle Androgen Receptor (AR), gene 101947425 | False |
| CN(C)C(=N)N=C(N)N | turtle Androgen Receptor (AR), gene 101947425 | False |
| CCCCCCCCCCCCN | turtle Androgen Receptor (AR), gene 101947425 | False |
| O=c1cc(-c2ccccc2)oc2cc(O)cc(O)c12 | turtle Androgen Receptor (AR), gene 101947425 | True |

* * *

EXPERIMENTAL_SYSTEM: human Phosphoinositide 3-kinase alpha (PI3Ka), PIK3CA (gene 5290) (UniProt P42336)
Sequence (P42336 whole entry, looked up): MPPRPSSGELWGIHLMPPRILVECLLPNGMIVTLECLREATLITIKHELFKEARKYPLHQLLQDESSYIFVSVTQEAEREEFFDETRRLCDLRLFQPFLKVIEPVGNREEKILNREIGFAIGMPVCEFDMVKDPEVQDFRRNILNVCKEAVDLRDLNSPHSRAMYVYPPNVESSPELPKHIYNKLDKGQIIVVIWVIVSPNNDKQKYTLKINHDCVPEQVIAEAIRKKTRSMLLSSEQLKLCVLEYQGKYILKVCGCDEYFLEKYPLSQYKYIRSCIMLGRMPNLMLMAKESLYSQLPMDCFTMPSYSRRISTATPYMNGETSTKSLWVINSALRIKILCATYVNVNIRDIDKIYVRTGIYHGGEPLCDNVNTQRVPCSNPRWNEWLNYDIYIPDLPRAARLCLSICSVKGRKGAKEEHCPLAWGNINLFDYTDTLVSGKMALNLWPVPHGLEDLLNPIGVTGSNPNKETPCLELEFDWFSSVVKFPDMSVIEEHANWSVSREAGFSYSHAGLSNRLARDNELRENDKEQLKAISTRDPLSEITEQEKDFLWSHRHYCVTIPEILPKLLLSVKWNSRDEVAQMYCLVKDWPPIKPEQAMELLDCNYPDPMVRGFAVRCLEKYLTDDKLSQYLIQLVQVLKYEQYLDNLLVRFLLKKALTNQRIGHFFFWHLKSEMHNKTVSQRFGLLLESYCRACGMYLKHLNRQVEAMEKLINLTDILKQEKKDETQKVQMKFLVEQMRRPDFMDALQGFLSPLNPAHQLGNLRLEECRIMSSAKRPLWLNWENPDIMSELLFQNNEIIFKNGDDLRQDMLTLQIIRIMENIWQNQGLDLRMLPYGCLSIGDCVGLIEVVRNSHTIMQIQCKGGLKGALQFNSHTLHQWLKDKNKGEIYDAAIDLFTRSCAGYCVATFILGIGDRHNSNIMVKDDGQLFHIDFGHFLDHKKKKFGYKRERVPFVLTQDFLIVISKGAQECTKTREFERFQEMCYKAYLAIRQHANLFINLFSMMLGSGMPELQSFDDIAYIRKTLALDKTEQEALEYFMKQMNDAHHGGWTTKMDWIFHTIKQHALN
MEASUREMENT_NOTES: NVS_ENZ_hPI3Ka: NovaScreen (NVS) Enzymatic Assay for human Phosphoinositide 3-kinase alpha (PI3Ka) (AID 2283196)
Inconclusive results are not listed. The source made the active and inactive calls. The calls were made as follows: active = hit-call score of the fitted dose curve at least 0.9, where 1 is the maximum; inconclusive = response in the unintended direction; inactive = score below 0.9.
Outcome codes: yes = active, no = inactive

| COMPOUND | EXPERIMENTAL_SYSTEM | LABEL |
| --- | --- | --- |
| CC(=O)/C=C/C1=C(C)CCCC1(C)C | human Phosphoinositide 3-kinase alpha (PI3Ka), PIK3CA (gene 5290) (UniProt P42336) | no |
| COC(=O)c1ccc(C)cc1 | human Phosphoinositide 3-kinase alpha (PI3Ka), PIK3CA (gene 5290) (UniProt P42336) | no |
| CC1CCC2CC1C2(C)C (stereo not drawn) | human Phosphoinositide 3-kinase alpha (PI3Ka), PIK3CA (gene 5290) (UniProt P42336) | yes |
| C#C[C@]1(O)CC[C@H]2[C@@H]3CCC4=Cc5oncc5C[C@]4(C)[C@H]3CC[C@@]21C | human Phosphoinositide 3-kinase alpha (PI3Ka), PIK3CA (gene 5290) (UniProt P42336) | no |
| CCCCC/C=C/C=C/C=O | human Phosphoinositide 3-kinase alpha (PI3Ka), PIK3CA (gene 5290) (UniProt P42336) | no |
| CCn1c2ccccc2c2cc(N)ccc21 | human Phosphoinositide 3-kinase alpha (PI3Ka), PIK3CA (gene 5290) (UniProt P42336) | yes |
| O=C=NC1CCC(CC2CCC(N=C=O)CC2)CC1 (stereo not drawn) | human Phosphoinositide 3-kinase alpha (PI3Ka), PIK3CA (gene 5290) (UniProt P42336) | no |
| CCCCC(CC)COCCC#N (stereo not drawn) | human Phosphoinositide 3-kinase alpha (PI3Ka), PIK3CA (gene 5290) (UniProt P42336) | no |

* * *

EXPERIMENTAL_SYSTEM: Cellular tumor antigen p53 (Homo sapiens)
MEASUREMENT_NOTES: ATG_p53_CIS: Attagene CIS-FACTORIAL HepG2 Assay for human p53 Transcription Factor (AID 2282994)
CONDITION: HepG2 p53 cis-element reporter, Attagene mRNA; actives raise or lower the signal
Calls of active or inactive are those of the source. How the source made its calls: active means hit-call score of the fitted dose curve at least 0.9, where 1 is the maximum; inactive means score below 0.9.
Outcome codes: active, inactive

| MOLECULE | LABEL |
| --- | --- |
| CCOC(=S)SSC(=S)OCC | inactive |
| O=C1O[C@@H]2[C@@H](O)[C@H](O)O[C@@H]2[C@H]1O | inactive |
| COc1ccc(O)cc1 | inactive |
| O=C1OC2(c3cc(Br)c(O)c(Br)c3Oc3c2cc(Br)c(O)c3Br)c2c(Cl)c(Cl)c(Cl)c(Cl)c21 | inactive |
| CC(C)(N)CO | inactive |
| Nc1cc(Cl)c(O)c(Cl)c1 | active |
| Cc1cc(C2(c3cc(C)c(O)cc3C)OS(=O)(=O)c3ccccc32)c(C)cc1O | inactive |
| Clc1nc(C(Cl)(Cl)Cl)c(Cl)c(Cl)c1Cl | inactive |
| CCC(=O)OCCC(C)CCC=C(C)C (centres undefined) | inactive |
| COc1cc(C=O)ccc1OC(=O)C(C)C | inactive |
| OC1OC[C@@H](O)[C@H](O)[C@H]1O (some centres undefined) | inactive |
| CC(=O)Nc1ccc(CC(=O)O)cc1 | inactive |
| NC(=O)c1ccccc1Cl | active |
| CCCC(=O)C(C)=O | inactive |

* * *

EXPERIMENTAL_SYSTEM: Androgen Receptor/SRC-1 Co-activator, AR (gene 367)
MEASUREMENT_NOTES: OT_AR_ARSRC1_0480: Odyssey Thera (OT) 8-hour HEK293T Protein-Complementation Assay for Androgen Receptor/SRC-1 Co-activator (AID 2283354);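 further: hits raise the complementation signal above DMSO so AC50 marks enhancers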
Results filed as inconclusive are left out. Calls of active or inactive are those of the source. Rule for the calls: active = hit-call score of the fitted dose curve at least 0.9, where 1 is the maximum; inconclusive = response in the unintended direction; inactive = score below 0.9.
Outcome codes: active, inactive

| SMILES_REPR | LABEL |
| --- | --- |
| c1ccc2[nH]ccc2c1 | inactive |
| O=Nc1ccc(Nc2ccccc2)cc1 | active |
| CCCCCCCCCCCCCOS(=O)(=O)O | inactive |
| CCN(CC)c1ccc(C(=C2C=CC(=[N+](CC)CC)C=C2)c2ccc(S(=O)(=O)O)cc2S(=O)(=O)[O-])cc1 | inactive |
| CCCCC[Si](OCC)(OCC)OCC | inactive |

* * *

Read-out: Secreted IgG (sIgG), gene 3500
MEASUREMENT_NOTES: BSK_BT_sIgG: BioMAP Diversity Plus: BT Assay for Secreted IgG (sIgG) Biomarker Activity (AID 2284226)
CONDITION: primary human B cells with PBMC
The source made the active and inactive calls. The calls were made as follows: active = hit-call score of the fitted dose curve at least 0.9, where 1 is the maximum; inactive = score below 0.9.
Outcome codes: yes = active, no = inactive

| COMPOUND | LABEL |
| --- | --- |
| CCCCC(CC)COC(=O)/C=C\C(=O)OCC(CC)CCCC (configuration not stated) | yes |
| N#Cc1ccc(CC(=NNC(=O)Nc2ccc(OC(F)(F)F)cc2)c2cccc(C(F)(F)F)c2)cc1 | yes |
| O=C(O)c1cn(-c2ccc(F)cc2)c2cc(N3CCNCC3)c(F)cc2c1=O | no |
| CNC[C@H](O)c1cccc(O)c1 | no |
| CCCCC/C=C/C=C/C=O | yes |
| C=C(C)C(=O)O[C@H]1C[C@@H]2CC[C@@]1(C)C2(C)C | no |
| CC1COc2ccccc2N1C(=O)C(Cl)Cl (configuration not stated) | yes |
| O=C(O)C[C@H](O)C[C@H](O)/C=C/c1c(C2CC2)nc2ccccc2c1-c1ccc(F)cc1 | yes |
| CCCCCCCCC=O | no |
| c1ccc2sc(SN(C3CCCCC3)C3CCCCC3)nc2c1 | no |
| CCn1c2ccccc2c2cc(N)ccc21 | yes |
| O=C1CCCCCCCCCCCCCCO1 | yes |

* * *

EXPERIMENTAL_SYSTEM: Paired box protein Pax-6 (Homo sapiens) (UniProt P26367)
Sequence (P26367 whole entry, looked up): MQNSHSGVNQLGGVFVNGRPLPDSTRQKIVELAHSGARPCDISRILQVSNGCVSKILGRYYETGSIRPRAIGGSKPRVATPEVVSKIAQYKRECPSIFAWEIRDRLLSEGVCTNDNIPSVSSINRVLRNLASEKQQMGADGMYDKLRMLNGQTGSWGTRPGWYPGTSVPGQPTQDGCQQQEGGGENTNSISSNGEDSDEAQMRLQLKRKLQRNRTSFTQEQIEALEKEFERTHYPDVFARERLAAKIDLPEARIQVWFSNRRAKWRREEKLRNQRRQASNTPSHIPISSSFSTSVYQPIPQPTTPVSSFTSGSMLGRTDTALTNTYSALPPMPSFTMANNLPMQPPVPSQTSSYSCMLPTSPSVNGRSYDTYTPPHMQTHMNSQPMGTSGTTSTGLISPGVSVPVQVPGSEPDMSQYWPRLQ
MEASUREMENT_NOTES: ATG_Pax6_CIS: Attagene CIS-FACTORIAL HepG2 Assay for human Paired Box 6 (PAX6) (AID 2282956)
CONDITION: HepG2 CIS-FACTORIAL PAX6 reporter transcription, RNA readout; actives raise or lower the signal
The source made the active and inactive calls. The calls were made as follows: active = hit-call score of the fitted dose curve at least 0.9, where 1 is the maximum; inactive = score below 0.9.
Outcome codes: 1 (active), 0 (inactive)

| MOLECULE | LABEL |
| --- | --- |
| COC(=O)C1=C(C)NC(C)=C(C(=O)OCCN(C)Cc2ccccc2)C1c1cccc([N+](=O)[O-])c1 (stereo not drawn) | 1 |
| CC1(CO)CN(c2ccccc2)NC1=O (stereo not drawn) | 0 |
| Cc1ccccc1C=O | 0 |
| CCCCCCOC(=O)CCCCC | 0 |
| O=C[C@H](O)[C@H](O)[C@H](O)CO | 0 |
| Cc1ccc(C(=O)O)o1 | 0 |
| C=C(C)C1CCC(C)CC1O (stereo not drawn) | 0 |
| O=C(O)c1ccc([N+](=O)[O-])cc1 | 0 |
| CNC[C@H](O)c1cccc(O)c1 | 0 |
| C=C[Si](OCC)(OCC)OCC | 0 |
| C[C@]12CC[C@H]3[C@@H](CCC4=CC(=O)CC[C@@]43C)[C@@H]1CC[C@@H]2C(=O)CO | 1 |
| O=CCCc1ccccc1 | 0 |
| CCCCC/C=C/C=C/C=O | 1 |

* * *

Read-out: Interferon-gamma inducible Protein 10 (IP10), CXCL10 (gene 3627)
MEASUREMENT_NOTES: BSK_BE3C_IP10: BioMAP Diversity Plus: BE3C Assay for Interferon-gamma inducible Protein 10 (IP10) Biomarker Activity (AID 2283034)
CONDITION: primary human bronchial epithelial cells; actives raise or lower the signal
Active and inactive are the calls of the source. Rule for the calls: active = hit-call score of the fitted dose curve at least 0.9, where 1 is the maximum; inactive = score below 0.9.
Outcome codes: Yes (active), No (inactive)

| SMILES_REPR | LABEL |
| --- | --- |
| c1ccc2sc(SN(C3CCCCC3)C3CCCCC3)nc2c1 | Yes |
| CCCCC/C=C/C=C/C=O | Yes |
| CC[Si](OC(C)=O)(OC(C)=O)OC(C)=O | No |
| CC(=O)O[C@]1(C(C)=O)CC[C@H]2[C@@H]3C[C@H](C)C4=CC(=O)CC[C@]4(C)[C@H]3CC[C@@]21C | No |
| Cc1ccc(O)c(C(C)(C)C)c1 | Yes |
| CC(=O)[C@H]1CC[C@H]2[C@@H]3CC=C4C[C@@H](O)CC[C@]4(C)[C@H]3CC[C@]12C | No |
